Target: T1, Mouse Fc-human GDF15 (Mu IgG1Fc_Fxa_Hu GDF15) (human)
T1 construct: Whole entry is the fusion: mouse IgG1 Fc, FXa site and linker, mature human GDF15; described as dimeric; also called Murine dimeric IgG1 Fc-human GDF-15 with FXa cleavage site; control human GDF15
T1 chain: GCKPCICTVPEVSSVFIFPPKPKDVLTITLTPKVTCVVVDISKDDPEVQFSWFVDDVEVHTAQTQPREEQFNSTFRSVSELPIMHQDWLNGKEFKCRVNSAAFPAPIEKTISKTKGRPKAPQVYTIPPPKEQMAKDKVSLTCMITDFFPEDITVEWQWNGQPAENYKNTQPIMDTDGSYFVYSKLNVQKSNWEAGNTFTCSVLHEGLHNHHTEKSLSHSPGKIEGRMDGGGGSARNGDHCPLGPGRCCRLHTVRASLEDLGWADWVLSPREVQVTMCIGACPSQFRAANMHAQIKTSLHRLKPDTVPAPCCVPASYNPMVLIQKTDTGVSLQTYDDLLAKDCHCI
Assay: SPR BIAcore T200, 37C; Fc-GDF15 captured, IgG as analyte; average of runs
OBSERVATION TYPE: kon (M⁻¹ s⁻¹)
Lab book: enter the figure in M⁻¹ s⁻¹, no units written.

Field: example entries. Status: answers known.
{"BINDER": "GDF15_020 (antibody, human IgG1, kappa, V domains shown, Tested in bivalent format) VH: QVQLVQSGAEVKKPGSSVKVSCKASGYTFSDYNMDWVRQAPGQGLEWMGQINPNNGLANYNQKFQGRVTITADESTSTAYMELSSLRSEDTAVYYCAREAITTVGAMDYWGQGTLVTVSS VL: EIVLTQSPATLSLSPGERATLSCRASQNLHSYLAWYQQKPGQAPRLLIYDASTRADGIPARFSGSGSGTDFTLTISSLEPEDFAVYYCQQFWSDPYTFGQGTKVEIKR", "READOUT VALUE": 829000}
{"BINDER": "GDF15_021 (antibody, human IgG1, kappa, V domains shown, Tested in bivalent format) VH: QVQLVQSGAEVKKPGSSVKVSCKASGYTFSSYNIDWVRQAPGQGLEWMGGINPINGLIFFNQKFQGRVTITADESTSTAYMELSSLRSEDTAVYYCAREAITTVGAMDHWGQGTLVTVSS VL: EIVLTQSPATLSLSPGERATLSCRTSENVHSYLAWYQQKPGQAPRLLIYDASNLADGIPARFSGSGSGTDFTLTISSLEPEDFAVYYCQQFWSDPYTFGQGTKVEIKR", "READOUT VALUE": "2.09e+06"}
{"BINDER": "GDF15_017 (antibody, human IgG1, kappa, V domains shown, Tested in bivalent format) VH: QVQLVQSGAEVKKPGSSVKVSCKASGYTFTDYNIDWVRQAPGQGLEWMGQINPNNGLAFYNQKFQGRVTITADESTSTAYMELSSLRSEDNAVYYCAREAITTVGAMDYWGQGTLVTVSS VL: EIVLTQSPATLSLSPGERATLSCRTSQSVHSYLAWYQQKPGQAPRLLIYDAKTRATGIPARFSGSGSGTDFTLTISSLEPEDFAVYYCQQFSSDPYTFGQGTKVEIKR", "READOUT VALUE": "2.57e+06"}
{"BINDER": "GDF15_0470 (antibody, human IgG1, kappa, V domains shown, Tested in bivalent format; also called GDF15-470) VH: QVQLVQSGAEVKKPGASVKVSCKASGYPFEGWYIHWVRQAPGQGLEWMGWNNPRTGLTNHAQKFQGRVTMTRDTSISTAYMELSRLRSDDTAVYYCARGVGADAAFDIWGQGTMVTVSS VL: EIVLTQSPATLSLSPGERATLSCRSSQSLLWKHGYNYLDWYQQKPGQAPRLLIYLDRNRAHGIPARFSGSGSGTDFTLTISSLEPEDFAVYYCMQSFETPITFGQGTKVEIKR", "READOUT VALUE": "1.25e+07"}
{"BINDER": "GDF15_013 (antibody, human IgG1, kappa, V domains shown, Tested in bivalent format) VH: QVQLVQSGAEVKKPGSSVKVSCKASGYTFSDYNMDWVRQAPGQGLEWMGGINPNNGLAFYNQKFQGRVTITADESTSTAYMELSSLRSEDTAVYYCAREAITTVGAMDYWGQGTLVTVSS VL: EIVLTQSPATLSLSPGERATLSCRTSESVHSYLAWYQQKPGQAPRLLIYDASNRATGIPARFSGSGSGTDFTLTISSLEPEDFAVYYCQQFWNWPWTFGQGTKVEIKR", "READOUT VALUE": "4.86e+06"}

-- ask // query kon value for entry GDF15_022 (antibody, human IgG1, kappa, V domains shown, Tested in bivalent format) VH: QVQLVQSGAEVKKPGSSVKVSCKASGYTFSDYNIDWVRQAPGQGLEWMGQINPNNGLIFFNQKFQGRVTITADESTSTAYMELSSLRSEDTAVYYCAREVITTVGAMDYWGQGTLVTVSS VL: EIVLTQSPATLSLSPGERATLSCRTSQSVHSYLAWYQQKPGQAPRLLIYDAKTRADGIPARFSGSGSGTDFTLTISSLEPEDFAVYYCQQFSSDPYTFGQGTKVEIKR
-- reply 1.08e+06

-- ask GET /values?readout=kon&item= GDF15_0297 (antibody, mouse IgG1, kappa, V domains shown, Tested in bivalent format; also called GDF15_297) VH: QVQLQQPGAELVKPGASVKMSCKASGYPFEGWYIHWVKQRPGQGLEWMGWNNPRTGLTNHAQKFQGKVTMTRDTSSSTAYMQLSSLTSEDSAVYYCARGVGADAAFDIWGQGTTLTVSS VL: DIVMTQSPSSLSVSAGEKVTMSCRSSQSLLWKHGYNYLDWYQQKPGQPPKLLIYLDRNRAHGVPDRFTGSGSGTDFTLTISSVQAEDLAVYYCMQSFETPITFGGGTKLEIKR
-- reply 5.52e+06
